interaction score for assorted binders
# Assayed Target: T1, 4H341-AA
# T1 chain: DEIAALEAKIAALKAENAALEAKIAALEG
# Measurement Notes: two-hybrid library CCmax;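 further: natural log of median RNA to DNA barcode read ratio; higher means stronger binding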
# Condition Label: mean of both orientations
Just the number, please.

Take a look at these entries with their results.
Binder	interaction score
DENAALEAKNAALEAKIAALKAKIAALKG [4H1454-AA]	-1.24
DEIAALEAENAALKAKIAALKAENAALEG [4H235-AA]	-0.261
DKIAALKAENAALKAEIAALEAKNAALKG [4H2760-AA]	-0.788
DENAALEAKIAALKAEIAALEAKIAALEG [4H1349-AA]	-0.142

Kindly review the next binder as well.
The reported interaction score of the binder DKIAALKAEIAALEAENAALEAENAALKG [4H2580-AA] was 0.477
